Target: T1, human serum proteins (binding ascribed fully to human serum albumin, HSA) (human, UniProt P02768 25-609)
T1 construct: No purified HSA was used
T1 sequence (P02768 25-609 limits assumed): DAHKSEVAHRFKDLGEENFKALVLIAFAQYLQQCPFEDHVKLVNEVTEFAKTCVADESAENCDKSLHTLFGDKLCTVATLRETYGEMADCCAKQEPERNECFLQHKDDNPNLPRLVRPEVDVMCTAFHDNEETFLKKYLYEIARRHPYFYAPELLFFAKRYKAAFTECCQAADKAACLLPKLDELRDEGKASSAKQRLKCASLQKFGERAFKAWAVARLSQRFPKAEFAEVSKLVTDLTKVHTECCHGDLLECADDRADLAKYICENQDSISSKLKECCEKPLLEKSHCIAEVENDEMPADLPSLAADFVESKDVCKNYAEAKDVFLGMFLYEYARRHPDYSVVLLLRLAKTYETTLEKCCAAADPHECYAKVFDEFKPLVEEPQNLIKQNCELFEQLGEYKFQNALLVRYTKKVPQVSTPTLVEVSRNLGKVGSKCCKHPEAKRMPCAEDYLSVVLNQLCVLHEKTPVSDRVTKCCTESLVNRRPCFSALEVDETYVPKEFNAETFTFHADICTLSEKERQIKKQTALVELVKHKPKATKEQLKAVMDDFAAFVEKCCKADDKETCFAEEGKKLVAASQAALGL
Experiment: apparent Kd* by EC50 shift analysis: Jurkat viability EC50 at 0, 2 and 10% human serum, fit assuming 1:1 binding to HSA
Bridge positions count the residues as written; N and C are the ends. Square brackets hold non-standard residues; d marks the D form. * marks the point of attachment. S5 = C=CCCC[C@](C)(N)C(=O)O; Nle = CCCC[C@H](N)C(=O)O; Aib = CC(C)(N)C(=O)O; Propionyl = CCC(=O)*
binders and their reported Kd

Recorded results for 2 binders are shown here.
| binder | Kd |
| --- | --- |
| Propionyl-RNIARHLA[S5]V[Aib]D[S5][Nle]DRSI-NH2 (staple 9-13) [Compound 5 (crosslinked polypeptide derived from human BID BH3)] | 200 nM |
| Ac-DIARNIARHLA[S5]V[Aib]D[S5][Nle]ARSI-NH2 (staple 12-16) [Compound 3 (crosslinked polypeptide derived from human BID BH3)] | < 100 nM |

Shifting focus to the binder that follows.
Name the recorded Kd for Ac-DAARNIARHLA[S5]V[Aib]D[S5][Nle]ARSI-NH2 (staple 12-16) [Compound 2 (crosslinked polypeptide derived from human BID BH3)] .
< 100 nM

Where these numbers come from: patent US9175045B2
